Tested on: LNCaP
ASSAY SUMMARY: Cytotoxicity against human LNCAP cells
Type: functional
CONDITIONS: Homo sapiens, LNCaP; read-out: ED50 (the source's name)
Label key: Satisfied means EC50 under 100 nM; Not satisfied means EC50 of 100 nM or more.

- SMILES REPRESENTATION: "CC[C@@]1(O)C(=O)OCc2c1cc1n(c2=O)Cc2cc3ccccc3nc2-1"
  ASSAYED SYSTEM: "LNCaP"
  CATEGORY LABEL: "Satisfied"
- SMILES REPRESENTATION: "CC(=O)O[C@H]1C(=O)[C@@]2(C)[C@H]([C@H](OC(=O)c3ccccc3)[C@]3(O)C[C@H](OC(=O)[C@H](O)[C@@H](NC(=O)c4ccccc4)c4ccccc4)C(C)=C1C3(C)C)[C@]1(OC(C)=O)CO[C@@H]1C[C@@H]2O"
  ASSAYED SYSTEM: "LNCaP"
  CATEGORY LABEL: "Satisfied"
- SMILES REPRESENTATION: "COc1ccc([C@@]23Oc4cc(OC)cc(OC)c4[C@]2(O)[C@H](O)[C@H](C(=O)O)[C@H]3c2ccccc2)cc1"
  ASSAYED SYSTEM: "LNCaP"
  CATEGORY LABEL: "Not satisfied"
- SMILES REPRESENTATION: "COC(=O)[C@H]1[C@@H](O)[C@@]2(O)c3c(OC)cc(OC)cc3O[C@@]2(c2ccc(OC)cc2)[C@@H]1c1ccccc1"
  ASSAYED SYSTEM: "LNCaP"
  CATEGORY LABEL: "Not satisfied"

Next, consider the following molecule.
Task: Would you kindly verify if EC50 of COc1ccc([C@@]23Oc4cc(OC)cc(OC)c4[C@]2(O)[C@H](OC(C)=O)C[C@H]3c2ccccc2)cc1 is strictly less than 100 nM?
Result: Not satisfied
